# reported MIC; entries follow
- Tested on: Staphylococcus aureus
- test method notes: Antibacterial activity against Staphylococcus aureus DSM 799 incubated for 24 hrs by disk diffusion method
- Type: functional
- assay context: DSM 799, 24 h

{"compound": "CC(C)[C@@H](C)/C=C/[C@@H](C)[C@H]1CC[C@@]2(O)C3=CC(=O)[C@@]4(O)C[C@@H](O)CC[C@]4(C)[C@@]3(O)CC[C@]12C", "result": "> 10 µg/mL"}

*Q* Which value of MIC has been reported for CC(C)[C@@H](C)/C=C/[C@@H](C)[C@H]1CC[C@H]2/C(=C/C(=O)O[C@]3(C)CCC=CC3=O)C(=O)CC[C@]12C in the records?
*A* 1 µg/mL

*Q* Which value of MIC has been reported for CC(C)=CC[C@H](O)[C@@H](C)[C@H]1CC[C@@]2(C)c3ccc4c(c3C[C@@H](O)[C@]12C)[C@@H](O)C[C@H](O)C4(C)C in the records?
*A* 5 µg/mL

*Q* Which value of MIC has been reported for CN[C@@H]1[C@H](O[C@H]2[C@H](O[C@H]3[C@H](O)[C@@H](O)[C@H](N=C(N)N)[C@@H](O)[C@@H]3N=C(N)N)O[C@@H](C)[C@]2(O)C=O)O[C@@H](CO)[C@H](O)[C@H]1O [STREPTOMYCIN] in the records?
*A* 5 µg/mL

*Q* Which value of MIC has been reported for CC(C)[C@@H](C)/C=C/[C@@H](C)[C@H]1CCC2C3=CC(=O)O[C@@]3(O)CC[C@@]21C (stereo partly drawn) [DEMETHYLINCISTEROL A3] in the records?
*A* > 10 µg/mL

*Q* Which value of MIC has been reported for CC(C)[C@@H](C)/C=C/[C@@H](C)[C@H]1CC[C@H]2C3=CC(=O)[C@@]4(O)C[C@@H](O)CC[C@]4(C)[C@@]3(O)CC[C@]12C in the records?
*A* > 10 µg/mL

*Q* Which value of MIC has been reported for CO[C@]12CC[C@]3(C)[C@@H]([C@H](C)/C=C/[C@H](C)C(C)C)CC[C@H]3C1=CC(=O)O2 in the records?
*A* > 10 µg/mL

*Q* Which value of MIC has been reported for CC(C)[C@@H](C)/C=C/[C@@H](C)[C@H]1CC[C@H]2C3=C[C@H](O)[C@@]4(O)C[C@@H](O)CC[C@]4(C)C3=CC[C@]12C in the records?
*A* > 10 µg/mL

###

# reported MIC; entries follow
- Tested on: Bacillus subtilis
- test method notes: Antibacterial activity against Bacillus subtilis DSM 1088 incubated for 24 hrs by disk diffusion method
- Type: functional
- assay context: DSM 1088, 24 h

Please review the following examples before continuing.
{"molecule": "CC(C)=CC[C@H](O)[C@@H](C)[C@H]1CC[C@@]2(C)c3ccc4c(c3C[C@@H](O)[C@]12C)[C@@H](O)C[C@H](O)C4(C)C", "subject of test": "Bacillus subtilis", "MIC": "2 µg/mL"}
{"molecule": "CC(C)[C@@H](C)/C=C/[C@@H](C)[C@H]1CC[C@H]2C3=CC(=O)[C@@]4(O)C[C@@H](O)CC[C@]4(C)[C@@]3(O)CC[C@]12C", "subject of test": "Bacillus subtilis", "MIC": "5 µg/mL"}
{"molecule": "CC(C)[C@@H](C)/C=C/[C@@H](C)[C@H]1CC[C@H]2C3=C[C@H](O)[C@@]4(O)C[C@@H](O)CC[C@]4(C)C3=CC[C@]12C", "subject of test": "Bacillus subtilis", "MIC": "> 10 µg/mL"}
{"molecule": "CC(C)[C@@H](C)/C=C/[C@@H](C)[C@H]1CCC2C3=CC(=O)O[C@@]3(O)CC[C@@]21C (stereo partly drawn) [DEMETHYLINCISTEROL A3]", "subject of test": "Bacillus subtilis", "MIC": "> 10 µg/mL"}

*Q* Which value of MIC has been reported for CC(C)[C@@H](C)/C=C/[C@@H](C)[C@H]1CC[C@@]2(O)C3=CC(=O)[C@@]4(O)C[C@@H](O)CC[C@]4(C)[C@@]3(O)CC[C@]12C in the records?
*A* > 10 µg/mL

*Q* Which value of MIC has been reported for CO[C@]12CC[C@]3(C)[C@@H]([C@H](C)/C=C/[C@H](C)C(C)C)CC[C@H]3C1=CC(=O)O2 in the records?
*A* > 10 µg/mL

*Q* Which value of MIC has been reported for CN[C@@H]1[C@H](O[C@H]2[C@H](O[C@H]3[C@H](O)[C@@H](O)[C@H](N=C(N)N)[C@@H](O)[C@@H]3N=C(N)N)O[C@@H](C)[C@]2(O)C=O)O[C@@H](CO)[C@H](O)[C@H]1O in the records?
*A* 5 µg/mL

*Q* Which value of MIC has been reported for CC(C)[C@@H](C)/C=C/[C@@H](C)[C@H]1CC[C@H]2/C(=C/C(=O)O[C@]3(C)CCC=CC3=O)C(=O)CC[C@]12C in the records?
*A* 5 µg/mL

Data origin: ChEMBL document CHEMBL3593195
